# Procedure summary: Selectivity index, ratio of IC50 for human HepG2 cells to EC50 for chloroquine-sensitive Plasmodium falciparum 3D7 infected in erythrocytes
# Type: toxicity, cell-based
# Measurement context: read-out: Ratio IC50/EC50
Where a SMILES comes first, the peptide text is derived from it. [ ]: non-standard residue; d: D form. The star is where a group is joined. Trt = c1ccc(C(c2ccccc2)(c2ccccc2)*)cc1; Sar = CNCC(=O)O; tBu = CC(C)(C)*
Measured selectivity ratio of individual entries

Below, 3 molecules whose answers are already recorded.
Molecule	Endpoint label	Test value
CN1CC(=O)N[C@@H](CSC(c2ccccc2)(c2ccccc2)c2ccccc2)C(=O)NCC(=O)N[C@@H](CSC(c2ccccc2)(c2ccccc2)c2ccccc2)C(=O)NCC(=O)N[C@@H](CCC(=O)O)C1=O (cyclo(C(Trt)GC(Trt)GE[Sar]))	selectivity ratio	> 46
C[C@@H](OC(C)(C)C)[C@@H]1NC(=O)CNC(=O)[C@H](CSC(c2ccccc2)(c2ccccc2)c2ccccc2)NC(=O)CNC(=O)[C@H](CSC(c2ccccc2)(c2ccccc2)c2ccccc2)NC(=O)CN(C)C1=O (cyclo(C(Trt)GC(Trt)GT(tBu)[Sar]))	selectivity ratio	> 66000
C[C@@H](OC(C)(C)C)[C@@H]1NC(=O)CN(C)C(=O)[C@H](CSC(c2ccccc2)(c2ccccc2)c2ccccc2)NC(=O)CN(C)C(=O)[C@H](CSC(c2ccccc2)(c2ccccc2)c2ccccc2)NC(=O)CN(C)C1=O (cyclo(C(Trt)[Sar]C(Trt)[Sar]T(tBu)[Sar]))	selectivity ratio	> 250000

Next molecule, please.
For record CN1CC(=O)N[C@@H](CSC(c2ccccc2)(c2ccccc2)c2ccccc2)C(=O)N(C)CC(=O)N[C@@H](CSC(c2ccccc2)(c2ccccc2)c2ccccc2)C(=O)N(C)CC(=O)N[C@@H](CCC(=O)O)C1=O (cyclo(C(Trt)[Sar]C(Trt)[Sar]E[Sar])) the listed selectivity ratio is > 20000

====

A collection of compounds and their measured Papp at 20 h, 20 µM
# Procedure summary: Permeability of the compound in pH 7.4 phosphate buffered saline at 20 uM after 20 hrs by PAMPA
# Type: ADME
# Measurement context: PAMPA, pH 7.4; read-out: permeability
Where a SMILES comes first, the peptide text is derived from it. [ ]: non-standard residue; d: D form. The star is where a group is joined. Trt = c1ccc(C(c2ccccc2)(c2ccccc2)*)cc1; Sar = CNCC(=O)O; tBu = CC(C)(C)*
State the answer as a number, implicitly in ×10⁻⁶ cm/s.

Compound	Papp at 20 h, 20 µM, ×10⁻⁶ cm/s
C[C@@H](OC(C)(C)C)[C@@H]1NC(=O)CNC(=O)[C@H](CSC(c2ccccc2)(c2ccccc2)c2ccccc2)NC(=O)CNC(=O)[C@H](CSC(c2ccccc2)(c2ccccc2)c2ccccc2)NC(=O)CN(C)C1=O (cyclo(C(Trt)GC(Trt)GT(tBu)[Sar]))	0.6

We now examine a further compound.
For record CN1CC(=O)N[C@@H](CSC(c2ccccc2)(c2ccccc2)c2ccccc2)C(=O)N[C@@H](CSC(c2ccccc2)(c2ccccc2)c2ccccc2)C(=O)N(C)CC(=O)N[C@@H](COC(C)(C)C)C1=O (cyclo(C(Trt)C(Trt)[Sar]S(tBu)[Sar])) the listed Papp at 20 h, 20 µM is 2

====

# Tested on: Plasmodium falciparum
# Procedure summary: Anti-plasmodial activity against chloroquine-sensitive Plasmodium falciparum 3D7 infected in erythrocytes after 72 hrs by SYBR green dye based fluorescence assay
# Type: functional, organism-based
# Measurement context: 3D7, 72 h
pEC50: −log10 of the molar value. Where a SMILES comes first, the peptide text is derived from it. [ ]: non-standard residue; d: D form. The star is where a group is joined. Trt = c1ccc(C(c2ccccc2)(c2ccccc2)*)cc1; Sar = CNCC(=O)O; tBu = CC(C)(C)*
Each record gets a class by pEC50: class A = under 8, class B = from 8 up to 9, class C = 9 and over

Look over these answered cases.
Compound	Discrete label
C[C@@H](OC(C)(C)C)[C@@H]1NC(=O)CNC(=O)[C@H](CSC(c2ccccc2)(c2ccccc2)c2ccccc2)NC(=O)CNC(=O)[C@H](CSC(c2ccccc2)(c2ccccc2)c2ccccc2)NC(=O)CN(C)C1=O (cyclo(C(Trt)GC(Trt)GT(tBu)[Sar]))	class B
CN1CC(=O)N[C@@H](CSC(c2ccccc2)(c2ccccc2)c2ccccc2)C(=O)NCC(=O)N[C@@H](CSC(c2ccccc2)(c2ccccc2)c2ccccc2)C(=O)NCC(=O)N[C@@H](CCC(=O)O)C1=O (cyclo(C(Trt)GC(Trt)GE[Sar]))	class A
C[C@@H](OC(C)(C)C)[C@@H]1NC(=O)CN(C)C(=O)[C@H](CSC(c2ccccc2)(c2ccccc2)c2ccccc2)NC(=O)CNC(=O)[C@H](CSC(c2ccccc2)(c2ccccc2)c2ccccc2)NC(=O)CN(C)C1=O (cyclo(C(Trt)GC(Trt)[Sar]T(tBu)[Sar]))	class C

Data request: Which bin, given its pEC50, does CCc1nc(N)nc(N)c1-c1ccc(Cl)cc1 occupy?
Data returned: class A

Data request: Which category fits this record: C[C@H]1[C@H](OC(=O)CCC(=O)O)O[C@@H]2O[C@@]3(C)CC[C@H]4[C@H](C)CC[C@@H]1[C@@]24OO3 [ARTESUNATE]
Data returned: class B

Data request: Class? Entry: CN1CC(=O)N[C@@H](CSC(c2ccccc2)(c2ccccc2)c2ccccc2)C(=O)NCC(=O)N[C@@H](CSC(c2ccccc2)(c2ccccc2)c2ccccc2)C(=O)N(C)CC(=O)N[C@@H](CCC(=O)O)C1=O (cyclo(C(Trt)GC(Trt)[Sar]E[Sar]))
Data returned: class A

====

# Procedure summary: Selectivity index, ratio of IC50 for human HepG2 cells to EC50 for chloroquine-sensitive Plasmodium falciparum 3D7 infected in erythrocytes
# Assay type: toxicity, cell-based
# Measurement context: read-out: Ratio IC50/EC50
Where a SMILES comes first, the peptide text is derived from it. [ ]: non-standard residue; d: D form. The star is where a group is joined. Trt = c1ccc(C(c2ccccc2)(c2ccccc2)*)cc1; Sar = CNCC(=O)O; tBu = CC(C)(C)*
Endpoint label: selectivity ratio

Sample answers from the record:
Compound	Endpoint label	Test value
C[C@@H](OC(C)(C)C)[C@@H]1NC(=O)CN(C)C(=O)[C@H](CSC(c2ccccc2)(c2ccccc2)c2ccccc2)NC(=O)CNC(=O)[C@H](CSC(c2ccccc2)(c2ccccc2)c2ccccc2)NC(=O)CN(C)C1=O (cyclo(C(Trt)GC(Trt)[Sar]T(tBu)[Sar]))	selectivity ratio	> 1e+06
CN1CC(=O)N[C@@H](CSC(c2ccccc2)(c2ccccc2)c2ccccc2)C(=O)N[C@@H](Cc2ccccc2)C(=O)N[C@@H](COC(C)(C)C)C(=O)N(C)CC(=O)N[C@@H](CSC(c2ccccc2)(c2ccccc2)c2ccccc2)C1=O (cyclo(C(Trt)FS(tBu)[Sar]C(Trt)[Sar]))	selectivity ratio	> 140000

Now let's try a different one.
Note to self: selectivity ratio recorded for CN1CC(=O)N[C@@H](CSC(c2ccccc2)(c2ccccc2)c2ccccc2)C(=O)N(C)CC(=O)N[C@@H](CSC(c2ccccc2)(c2ccccc2)c2ccccc2)C(=O)N(C)CC(=O)N[C@@H](COC(C)(C)C)C1=O (cyclo(C(Trt)[Sar]C(Trt)[Sar]S(tBu)[Sar])) was > 180000

====

# Test system: Plasmodium falciparum
# Procedure summary: Anti-plasmodial activity against chloroquine-sensitive Plasmodium falciparum 3D7 infected in erythrocytes after 72 hrs by SYBR green dye based fluorescence assay
# Type: functional, organism-based
# Measurement context: 3D7, 72 h
Where a SMILES comes first, the peptide text is derived from it. [ ]: non-standard residue; d: D form. The star is where a group is joined. Trt = c1ccc(C(c2ccccc2)(c2ccccc2)*)cc1; Sar = CNCC(=O)O; tBu = CC(C)(C)*
The following molecules are listed with their measured EC50 values.
The figure you give is taken to be in nM; do not add the unit.

Reported EC50 ( CN1CC(=O)N[C@@H](CSC(c2ccccc2)(c2ccccc2)c2ccccc2)C(=O)N(C)CC(=O)N[C@@H](CSC(c2ccccc2)(c2ccccc2)c2ccccc2)C(=O)N(C)CC(=O)N[C@@H](COC(C)(C)C)C1=O (cyclo(C(Trt)[Sar]C(Trt)[Sar]S(tBu)[Sar])) ) = 1.4

molecule CN1CC(=O)N[C@@H](CSC(c2ccccc2)(c2ccccc2)c2ccccc2)C(=O)N(C)CC(=O)N[C@@H](CSC(c2ccccc2)(c2ccccc2)c2ccccc2)C(=O)N(C)CC(=O)N[C@@H](CCC(=O)O)C1=O (cyclo(C(Trt)[Sar]C(Trt)[Sar]E[Sar])) , EC50 observed: 12

molecule CN1CC(=O)N[C@@H](CSC(c2ccccc2)(c2ccccc2)c2ccccc2)C(=O)N[C@@H](Cc2ccccc2)C(=O)N[C@@H](COC(C)(C)C)C(=O)N(C)CC(=O)N[C@@H](CSC(c2ccccc2)(c2ccccc2)c2ccccc2)C1=O (cyclo(C(Trt)FS(tBu)[Sar]C(Trt)[Sar])) , EC50 observed: 1.8

Measured EC50, C[C@@H](OC(C)(C)C)[C@@H]1NC(=O)CN(C)C(=O)[C@H](CSC(c2ccccc2)(c2ccccc2)c2ccccc2)NC(=O)CN(C)C(=O)[C@H](CSC(c2ccccc2)(c2ccccc2)c2ccccc2)NC(=O)CN(C)C1=O (cyclo(C(Trt)[Sar]C(Trt)[Sar]T(tBu)[Sar])) : 1
